The reported numbers originate from ChEMBL document CHEMBL1157539.

- System: HepG2
- procedure details: GSK_TCMDC: Percent inhibition of human HepG2 cell line. Test compounds present at 10uM.
- Type: functional
readout: Inhibition (%)
Form entry: value (%) — number only.

# count of solved cases: 3
molecule: N#Cc1cc([N+](=O)[O-])ccc1-n1nc(C(N)=O)n(Cc2cccc(F)c2)c1=S
Inhibition / %: 6
--
molecule: COc1ccc2nccc([C@@H](O)CN3CCC(NCc4ccc5c(c4)N(C)C(=O)CO5)CC3)c2c1.O=C(O)C(=O)O
Inhibition / %: 0
--
molecule: O=C(O)C(F)(F)F.O=S(=O)(NCCN1CCCC1)c1cccc(-c2cccc(CNCc3ccc(F)cc3)c2)c1
Inhibition / %: 41

Quickly give me recorded Inhibition for COc1ccc(CNCc2ccccc2)cc1-c1ccc(S(=O)(=O)NCCN2CCCC2)c(F)c1.O=C(O)C(F)(F)F
29

Quickly give me recorded Inhibition for O=C(NCCCCN1CCC(C(c2ccccc2)c2ccccc2)CC1)c1ccc(NC(=O)c2ccc(Cl)cc2)cc1
12

Quickly give me recorded Inhibition for CC(C)CC(NC(=O)c1cccc(OCCN2CCOCC2)c1)C(=O)NC(/C=N/NC(=O)c1ccccc1)CCc1ccccc1 (stereo not drawn)
0

Quickly give me recorded Inhibition for CCCCCCCCNCc1c(O)ccc2ccccc12.Cl
0

Quickly give me recorded Inhibition for O=C(NCCc1ccc(Cl)c(Cl)c1)c1ccc(CNC(=O)c2ccc(O)c(-c3ccc(Cl)c(Cl)c3)c2)cc1
0

====

- Test system: HepG2
- procedure details: GSK_TCMDC: Percent inhibition of human HepG2 cell line. Test compounds present at 10uM.
- Type: functional
readout: Inhibition (%)
Form entry: value (%) — number only.

Quickly give me recorded Inhibition for O=C(NC1CCCCC1)N(Cc1cccc(-c2ccc(CNC3CCCC3)cc2)c1)C1CCN(Cc2ccccc2)CC1.O=C(O)C(F)(F)F
37

Quickly give me recorded Inhibition for CC(C)Nc1nc(NC2CCCCC2)nc(N2CCCCCCC2)n1
13

====

# Inhibition annotations
- Tested on: Plasmodium falciparum
- procedure details: GSK_TCMDC: Inhibition of Plasmodium falciparum Dd2 in whole red blood cells, using parasite LDH activity as an index of growth. Test compounds present at 2uM
- Type: functional
Form entry: value (%) — number only.

compound: CO/C(=C\C=C\c1cc2cc(Cl)c(Cl)cc2[nH]1)C(=O)NCC(C)(C)CN(C)C
target system: Plasmodium falciparum
reading: 27

compound: Cc1cccc2nc(-c3ccc(-c4cccc(CNCc5ccccc5)c4)cc3)[nH]c12.O=C(O)C(F)(F)F
target system: Plasmodium falciparum
reading: 52

Quickly give me recorded Inhibition for O=S(=O)(c1ccccc1Cl)N1CCCCC(c2ccc(C(F)(F)F)cc2)=N1
72

Quickly give me recorded Inhibition for COc1ccc(CNC2CCN(C)CC2)cc1-c1ccc(S(=O)(=O)NCc2ccccc2)s1.O=C(O)C(F)(F)F
100

Quickly give me recorded Inhibition for CC1=C(C(=O)OC(C)C)C(c2ccccc2Cl)C2=C(CC(c3ccccc3)CC2=O)N1 (stereo not given)
84

====

- Tested on: HepG2
- procedure details: GSK_TCMDC: Percent inhibition of human HepG2 cell line. Test compounds present at 10uM.
- Format: functional
readout: Inhibition (%)
Form entry: value (%) — number only.

# count of solved cases: 3
compound: CN1CCc2cc(CN3CC4(C)CC3CC(C)(C)C4)c(O)cc2C(c2ccccc2)C1.Cl (stereo not drawn)
reading: 0
--
compound: Cn1cncc1C(=O)Nc1cccc(-c2csc(-c3nc4ccccc4[nH]3)c2)c1
reading: 15
--
compound: CC(C)Sc1ccc(Cl)cc1CON1C(=N)N=C(N)NC1(C)C.Cl
reading: 66

Quickly give me recorded Inhibition for CCN(CC)CCOC(=O)c1ccc(NC(=O)c2cn(-c3ccccc3)nc2-c2cccs2)cc1.Cl
25

Quickly give me recorded Inhibition for NCC1CCCN1Cc1ccc(-c2cccc(-c3nc4cc(C(F)(F)F)ccc4[nH]3)c2)cc1.O=C(O)C(F)(F)F (stereo not drawn)
24

Quickly give me recorded Inhibition for CCOc1c(CNCCCCCCNCc2ccc3ccccc3c2OCC)ccc2ccccc12.CS(=O)(=O)O
100

Quickly give me recorded Inhibition for CCOC(=O)c1nc(-c2ccc(-c3ccccc3)cc2)[nH]c1N.Cl
0

Quickly give me recorded Inhibition for Cc1ccc(NC(=O)c2ccc3ncccc3c2)cc1OC1CCN(Cc2ccsc2)CC1.O=C(O)C(F)(F)F
21

Quickly give me recorded Inhibition for COc1ccc2c(=NN=Cc3c(OC)ccc4ccccc34)cc(C)[nH]c2c1
7

Quickly give me recorded Inhibition for CC(C)c1sc(N2CCN(C)CC2)nc1C(=O)NCCc1cccc(Cl)c1.O=C(O)C(F)(F)F
9

Quickly give me recorded Inhibition for CC(C)CC(=O)N1CCNC[C@@H]1C(=O)NCCSCc1c(F)cccc1Cl.O=C(O)C(F)(F)F
1

Quickly give me recorded Inhibition for O=C(O)C(F)(F)F.OCC1CCN(Cc2ccc(-c3ccc(-c4nc5cc(C(F)(F)F)ccc5[nH]4)cc3)cc2)CC1
17

Quickly give me recorded Inhibition for O=C(/C=C/c1ccc(Cl)c(Cl)c1)NCCCCCCN1CCCN(C(=O)Nc2ccc(Cl)c(Cl)c2)CC1
25

====

- Tested on: Plasmodium falciparum
- procedure details: GSK_TCMDC: Inhibition of Plasmodium falciparum Dd2 in whole red blood cells, using parasite LDH activity as an index of growth. Test compounds present at 2uM
- Format: functional
Lab note - cut at 60% for Inhibition: 1 if strictly below, -1 if not.

Does the reported Inhibition of the following compound sit strictly below 60%? O=C(CCc1c[nH]cn1)Nc1ccc(-c2cccc(-c3nc4ccccc4[nH]3)c2)cc1
1

====

- Test system: Plasmodium falciparum
- procedure details: GSK_TCMDC: Inhibition of Plasmodium falciparum Dd2 in whole red blood cells, using parasite LDH activity as an index of growth. Test compounds present at 2uM
- Type: functional
Lab note - cut at 60% for Inhibition: criterion met if strictly below, criterion not met if not.

See these solved cases before continuing.
compound: O=C(Nc1cccc(-c2nn3ccccc3c2-c2ccnc(Nc3cccc(C(F)(F)F)c3)n2)c1)c1c(F)cccc1F
class label: criterion not met

compound: C[C@@H](CC1CCCCC1)OC(=O)N[C@H]1CCN(C#N)C1
class label: criterion not met

compound: CNC(=O)C1Cc2c([nH]c3cc(Cl)ccc23)C2(CCN(CCc3ccccc3)CC2)N1 (centres undefined)
class label: criterion met

compound: CN(C)CCNCc1cccc(-c2ccc3c(Nc4ccc(Oc5ccccc5)cc4)ccnc3c2)c1
class label: criterion not met

compound: O=C(N[C@@H](Cc1ccccc1)C(=O)NC1CCCCC1)c1ccc(O)c(-c2cccc(C(F)(F)F)c2)c1
class label: criterion met

compound: C[C@H](Cc1ccc(OCCCCCOc2ccc(C[C@@H](C)NC[C@H](O)c3cccc(Cl)c3)cc2)cc1)NC[C@H](O)c1cccc(Cl)c1.Cl
class label: criterion not met

compound: COc1ccc(OC)c(Cc2cnc3nc(N)nc(N)c3c2C)c1
class label: criterion not met

Does the reported Inhibition of the following compound sit strictly below 60%? CC(C)NCc1cccc(-c2cccc(NC(=O)c3cccc(C#N)c3)c2)c1.O=C(O)C(F)(F)F
criterion met

====

- Test system: Plasmodium falciparum
- procedure details: GSK_TCMDC: Inhibition of Plasmodium falciparum Dd2 in whole red blood cells, using parasite LDH activity as an index of growth. Test compounds present at 2uM
- Assay type: functional
readout: Inhibition (%)
Form entry: value (%) — number only.

substance smiles: CN(C)c1ccc(/C=C2\S/C(=N\c3ccccc3)N(c3ccccc3)C2=O)cc1[N+](=O)[O-]
target system: Plasmodium falciparum
measure unit: %
reading: 82

Quickly give me recorded Inhibition for COc1ccc(Nc2nc(C)cc(NC3CCCC3)n2)cc1
59

====

- Tested on: HepG2
- procedure details: GSK_TCMDC: Percent inhibition of human HepG2 cell line. Test compounds present at 10uM.
- Format: functional
Please mark 1.0 if the recorded Inhibition is equal to or greater than 10%, and 0.0 if it falls below.

See these solved cases before continuing.
molecule: O=C(N/C=N/c1cc([N+](=O)[O-])c(-c2ccncc2)n1-c1ccccc1)c1cccc(O)c1
class label: 0.0
--
molecule: CNCCNCc1cccc(-c2ccc(-c3nc4cccc(C)c4[nH]3)cc2)c1.O=C(O)C(F)(F)F
class label: 1.0
--
molecule: CC1(C)CCC(C)(C)c2c1ccc(C1CCN(CCCCNC(=O)c3ccc(-c4ccc(C#N)cc4)cc3)CC1)c2OCC(N)=O
class label: 1.0
--
molecule: Cc1noc(C)c1-c1ccc2c(Nc3ccccc3C(C)(C)C)c(C(=O)NCc3ccc(C(F)(F)F)cc3)cnc2c1.Cl
class label: 1.0
--
molecule: O=C(Nc1ccc(F)cc1)N1CCCN(c2ccnc3cc(Cl)ccc23)CC1.O=C(O)C(F)(F)F
class label: 0.0

Inhibition >= 10% for C[C@@H](C(=O)N1CCOCC1)N1CC[C@H](NS(=O)(=O)c2ccc3ccnc(N)c3c2)C1=O.O=CO ?
0.0

Inhibition >= 10% for COc1ccc(C(=C(C)CC(C)C(=O)O)c2ccccc2)cc1 (stereo unspecified) ?
0.0

Inhibition >= 10% for Cl.O=C(/C=C/c1ccc(Cl)cc1)Nc1ccc2nc(CN3CCCC3)ccc2c1 ?
1.0

Inhibition >= 10% for O=[N+]([O-])c1ccc2c(-c3ccccc3)c(-c3ccccc3)n(O)c2c1 ?
0.0

Inhibition >= 10% for FC(F)(F)c1ccc2[nH]c(-c3ccc(-c4ccc(CNCC5CCCO5)cc4)cc3)nc2c1.O=C(O)C(F)(F)F (stereo unspecified) ?
1.0

Inhibition >= 10% for O=C(/C=C/c1ccc(Cl)cc1)NCCCCCN1CCN(C(=O)C=Cc2ccc(Cl)c(Cl)c2)CC1.O=C(O)C(F)(F)F ?
1.0

Inhibition >= 10% for N=C(/N=C(/NCCCCCCN/C(=N\C(=N)Nc1ccc(Cl)cc1)N1CCCCC1)N1CCCCC1)Nc1ccc(Cl)cc1 ?
0.0

Inhibition >= 10% for NC1=NC(Cc2ccccc2)(c2ccncc2)C(=O)N1CCCc1ccccc1 (stereo unspecified) ?
0.0

Inhibition >= 10% for COc1ccc(Nc2nc(N)c3cc(OC)c(OC)cc3n2)cc1OC.Cl ?
0.0
